Measured glycan array binding signal (z-score) by item
system: GlcNAc(b1-3)GalNAc
assay-overview: glycan array binding signal (z-score within array); higher = stronger binding
stated-conditions: glycan notation: IUPAC condensed, linker removed
This is one part of a sample in which the strongest signals are shown more often than they occur.
observation-type: glycan array binding signal (z-score)

INSERT INTO results (binder, observation_type, data_value) VALUES
  ('Epa8 (Candida glabrata) (protein) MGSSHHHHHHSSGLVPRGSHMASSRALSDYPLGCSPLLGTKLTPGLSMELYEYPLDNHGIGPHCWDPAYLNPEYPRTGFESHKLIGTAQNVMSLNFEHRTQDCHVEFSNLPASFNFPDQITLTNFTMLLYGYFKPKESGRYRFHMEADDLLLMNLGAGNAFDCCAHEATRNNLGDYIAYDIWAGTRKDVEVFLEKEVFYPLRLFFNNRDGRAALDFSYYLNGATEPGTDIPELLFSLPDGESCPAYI', 'glycan array binding signal (z-score)', -0.661),
  ('Epa23 (Candida glabrata) (protein) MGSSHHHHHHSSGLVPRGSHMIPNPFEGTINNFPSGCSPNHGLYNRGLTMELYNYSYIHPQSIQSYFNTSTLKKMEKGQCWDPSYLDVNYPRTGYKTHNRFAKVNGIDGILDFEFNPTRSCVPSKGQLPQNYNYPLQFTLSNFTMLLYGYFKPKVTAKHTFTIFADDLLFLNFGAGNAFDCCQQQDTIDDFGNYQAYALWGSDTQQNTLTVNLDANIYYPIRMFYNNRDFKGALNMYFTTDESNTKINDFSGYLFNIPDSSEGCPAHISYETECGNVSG', 'glycan array binding signal (z-score)', -0.243),
  ('NakA (Mycobacterium tuberculosum) (protein) SVVKPTKVTVFSPDGGADNPGEADLAIDGNPATSWKTDIYTDPVPFPSFKNGVGLMLQLPQATVVGTVAIDVASTGTKVEIRSASTPTPATLEDTAVLTSATALRPGHNTISVEAAAPTSNLLVWISTLGTTDGKSQADISEITIYAASD', 'glycan array binding signal (z-score)', -0.001);
